Reference source: patent US20260184706A1

# measured on: recombinant human GCN2 protein (Homo sapiens, UniProt Q9P2K8)
# Sequence (Q9P2K8 whole entry): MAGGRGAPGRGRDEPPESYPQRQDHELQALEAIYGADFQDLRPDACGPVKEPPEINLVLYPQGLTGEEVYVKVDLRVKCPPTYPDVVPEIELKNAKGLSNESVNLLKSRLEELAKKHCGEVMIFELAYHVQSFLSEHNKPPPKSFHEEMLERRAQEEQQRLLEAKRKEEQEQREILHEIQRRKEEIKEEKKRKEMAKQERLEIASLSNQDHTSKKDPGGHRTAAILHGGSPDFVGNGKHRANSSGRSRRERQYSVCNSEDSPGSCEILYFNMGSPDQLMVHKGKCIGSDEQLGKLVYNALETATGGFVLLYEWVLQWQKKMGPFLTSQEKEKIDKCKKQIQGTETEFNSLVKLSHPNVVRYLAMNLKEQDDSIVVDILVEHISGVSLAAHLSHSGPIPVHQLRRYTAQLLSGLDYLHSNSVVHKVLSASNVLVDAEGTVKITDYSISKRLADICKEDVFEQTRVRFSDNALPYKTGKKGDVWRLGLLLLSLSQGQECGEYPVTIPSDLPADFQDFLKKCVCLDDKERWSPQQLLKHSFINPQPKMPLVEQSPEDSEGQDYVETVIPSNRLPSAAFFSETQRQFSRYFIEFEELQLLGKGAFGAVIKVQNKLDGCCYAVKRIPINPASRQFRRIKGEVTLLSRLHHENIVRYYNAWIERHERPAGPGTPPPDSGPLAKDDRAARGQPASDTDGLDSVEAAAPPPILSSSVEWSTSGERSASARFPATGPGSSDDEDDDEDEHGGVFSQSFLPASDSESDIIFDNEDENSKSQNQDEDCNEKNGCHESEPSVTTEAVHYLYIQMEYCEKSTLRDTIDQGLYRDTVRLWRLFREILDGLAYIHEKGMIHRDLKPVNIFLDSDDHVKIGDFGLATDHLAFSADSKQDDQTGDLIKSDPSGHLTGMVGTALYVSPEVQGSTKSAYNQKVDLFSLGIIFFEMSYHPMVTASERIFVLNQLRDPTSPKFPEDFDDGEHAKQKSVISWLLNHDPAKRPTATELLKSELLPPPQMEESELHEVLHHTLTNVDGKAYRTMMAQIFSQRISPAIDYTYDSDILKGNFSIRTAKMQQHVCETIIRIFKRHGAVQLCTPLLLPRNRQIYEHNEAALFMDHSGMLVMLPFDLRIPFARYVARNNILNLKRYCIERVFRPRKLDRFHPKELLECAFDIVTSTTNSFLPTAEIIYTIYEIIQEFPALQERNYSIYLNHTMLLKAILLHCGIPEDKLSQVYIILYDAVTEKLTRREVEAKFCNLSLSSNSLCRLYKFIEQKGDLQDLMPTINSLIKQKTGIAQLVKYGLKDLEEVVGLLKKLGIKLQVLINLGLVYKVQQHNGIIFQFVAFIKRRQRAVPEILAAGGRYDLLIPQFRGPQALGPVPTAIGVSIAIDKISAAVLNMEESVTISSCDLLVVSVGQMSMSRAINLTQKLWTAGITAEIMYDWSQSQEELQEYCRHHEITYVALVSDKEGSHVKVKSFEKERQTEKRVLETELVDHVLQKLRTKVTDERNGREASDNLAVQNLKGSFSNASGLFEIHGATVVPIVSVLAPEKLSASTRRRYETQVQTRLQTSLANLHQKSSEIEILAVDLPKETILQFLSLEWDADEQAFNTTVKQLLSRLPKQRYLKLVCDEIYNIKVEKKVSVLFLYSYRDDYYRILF
# method description: General control nonderepressible 2 (GCN2) inhibitory capacity, 33P-ATP filter assay
# condition details: recombinant human GCN2, 70 uM [gamma-33P-ATP], 40 minutes, room temperature
# Procedure: <Experimental Example 2> Evaluation of General Control Nonderepressible 2 (GCN2) Inhibitory Capacity A recombinant human GCN2 protein was mixed with the compound in a reaction solution (20 mM Tris/HCl pH8.5, 0.2 mM EDTA, 0.1% Tween, 100 mM NaCl, 300 μM RSRSRSRSRSRSRSR, 10 mM Magnesium acetate, 70 uM [gamma-33P-ATP]) and reacted at room temperature for 40 minutes. […]
pIC50: −log10 of the molar value.
Here the recorded pIC50 is given for each entry.

{"columns": ["compound", "measured on", "pIC50"],
 "data": [
  ["Cc1nn(C)c(C)c1S(=O)(=O)Nc1ccc(F)c(-c2cc3cnc(N)nc3n(C)c2=O)c1F [Example 3]", "recombinant human GCN2 protein (Homo sapiens, UniProt Q9P2K8)", "6.00 to 6.52"],
  ["Cn1c(=O)n(-c2c(F)ccc(NS(=O)(=O)c3cc(C(F)(F)F)ccc3Cl)c2F)c(=O)c2cnc(N)nc21 [Example 49]", "recombinant human GCN2 protein (Homo sapiens, UniProt Q9P2K8)", "6.52 to 7.00"],
  ["Cn1c(=O)n(-c2c(F)ccc(NS(=O)(=O)c3cc(Cl)ccc3Cl)c2F)c(=O)c2cnc(N)nc21 [Example 42]", "recombinant human GCN2 protein (Homo sapiens, UniProt Q9P2K8)", "6.52 to 7.00"],
  ["Cc1nn(C)c(Cl)c1S(=O)(=O)Nc1ccc(F)c(-n2c(=O)c3cnc(N)nc3n(C3CC3)c2=O)c1F [Example 66]", "recombinant human GCN2 protein (Homo sapiens, UniProt Q9P2K8)", "6.00 to 6.52"]
]}

* * *

# measured on: recombinant human GCN2 protein (Homo sapiens)
# method description: General control nonderepressible 2 (GCN2) inhibitory capacity, 33P-ATP filter assay
# condition details: recombinant human GCN2, 70 uM [gamma-33P-ATP], 40 minutes, room temperature
# Experimental: <Experimental Example 2> Evaluation of General Control Nonderepressible 2 (GCN2) Inhibitory Capacity A recombinant human GCN2 protein was mixed with the compound in a reaction solution (20 mM Tris/HCl pH8.5, 0.2 mM EDTA, 0.1% Tween, 100 mM NaCl, 300 μM RSRSRSRSRSRSRSR, 10 mM Magnesium acetate, 70 uM [gamma-33P-ATP]) and reacted at room temperature for 40 minutes. […]
pIC50: −log10 of the molar value.
Here the recorded pIC50 is given for each entry.

{"columns": ["compound", "pIC50"],
 "data": [
  ["COc1ncc(C#N)cc1S(=O)(=O)Nc1ccc(F)c(-n2c(=O)c3cnc(N)nc3n(C)c2=O)c1F [Example 47]", "> 7.00"],
  ["Cn1c(=O)n(-c2c(F)ccc(NS(=O)(=O)c3ccc(Cl)s3)c2F)c(=O)c2cnc(N)nc21 [Example 50]", "> 7.00"],
  ["Nc1ncc2c(=O)n(-c3c(F)ccc(NS(=O)(=O)c4ccc(Cl)s4)c3F)ccc2n1 [Example 31]", "6.52 to 7.00"],
  ["Cn1cc(S(=O)(=O)Nc2ccc(F)c(-n3c(=O)c4cnc(N)nc4n(C)c3=O)c2F)cn1 [Example 56]", "< 6.00"],
  ["COc1ncc(Cl)cc1S(=O)(=O)Nc1ccc(F)c(-n2nc(C)c3nc(N)ncc3c2=O)c1F [Example 38]", "6.52 to 7.00"],
  ["Cn1c(=O)c(-c2c(F)ccc(NS(=O)(=O)c3cc(C(F)(F)F)ccc3Cl)c2F)cc2cnc(N)nc21 [Example 18]", "6.52 to 7.00"],
  ["Cn1c(=O)n(-c2c(F)ccc(NS(=O)(=O)c3ccc(Cl)cc3Cl)c2F)c(=O)c2cnc(N)nc21 [Example 55]", "6.52 to 7.00"]
]}
